Kindly state % Inhibition for each of the entries shown.
# System: P. falciparum stage V gametocytes
# Parameters: BacTiter-Glo ATP luminescence viability of purified stage V gametocytes in 384-well plates, per cent inhibition versus DMSO
# test parameters: 48 h, 5 µM; inhibitor
About 3,200 (25%) of roughly 13,000 compounds showed an effect of 50% or more. This is one part of the list.

Would you be so kind as to report % Inhibition for each listed record?
1. N#Cc1ccc(CN2CCC(Oc3ccc(NC(=O)c4cccs4)cc3Cl)C2)cc1 (stereo not shown)
2. CN(CCON1C(N)=NC(N)=NC1(C)C)c1ccccc1
3. O=C(Nc1cccc(CCNCc2ccccc2)c1)Nc1cccc2ccccc12
4. CCOc1ccc(C(=O)Nc2cc(Cl)ccc2O)cc1Cl

Solution:
["5.438%", "4.514%", "-6.517%", "-34.32%"]

Below is a list of compounds. For each, state its recorded % Inhibition.
1. O=C(/C=C/c1ccc(Cl)c(Cl)c1)NCCCCCN1CCCC(CNC(=O)Nc2ccc(C(F)(F)F)cc2)C1 (stereo not shown)
2. O=c1[nH]c(NCCCNCc2cc3c(Cl)cc(Cl)cc3[nH]2)nc2ccsc12
3. CCCCc1ccc(NC(=O)Nc2cccc(CCNCc3ccccc3)c2)cc1

Solution:
["91.99%", "-0.4742%", "-36.83%"]

Please give % Inhibition for each item listed below.
1. Clc1ccc2nccc(N3CCC(CN4CCC(c5c[nH]c6ccccc56)CC4)CC3)c2c1
2. CCOc1cc(C(C)C)ccc1N1CCN(CCCCNC(=O)c2ccc(NC(=O)c3ccc(Cl)cc3)cc2)CC1
3. CC(C)c1ccc(NC(=O)NCCCC2CCCN(CCCCCNC(=O)/C=C/c3ccc(Cl)c(Cl)c3)C2)cc1 (stereo not shown)
4. Nc1ncc(-c2cccc(F)c2)cc1-c1nc2ccc(F)cc2[nH]1

Solution:
1: 0.1691%; 2: -10.71%; 3: 38.89%; 4: -10.73%

Go through the items and report each one's % Inhibition.
1. O=C(Nc1ccc(Cl)cc1)Nc1cccc(CCNCc2ccccc2)c1
2. COC(=O)c1ccc(NC(=O)Nc2cccc(CCNCc3ccccc3)c2)cc1
3. CCc1cccc(C)c1-n1nc(-c2cc(C(C)(C)C)oc2C)cc1N
4. COc1ccc(OC)c(-c2ccc(=O)n(CC(=O)Nc3cccc4ccccc34)n2)c1
5. Cc1sc2nc(CN3CCCC3)nc(-n3c(NCCO)nc4ccccc43)c2c1C

Solution:
74.03%
76.66%
9.67%
85.63%
45.04%

Could I get % Inhibition for every one of these entries?
1. COc1cc(NC(=O)Nc2cccc3ccccc23)c(OC)cc1Cl
2. CC(C)[C@H](NC(=O)c1c(CN2CCC(N3CCCCC3)CC2)c(-c2ccccc2)nc2cc(O)ccc12)c1ccccc1
3. COc1ccc(C(=O)Cn2nc(-c3ccc(Cl)cc3)ccc2=O)c(OC)c1

Solution:
1. 9.254%
2. 20.63%
3. -6.888%

Items follow; give % Inhibition for each.
1. CC(C)c1ccc(NC(=O)Nc2ccc(CCNCCCc3ccccc3)cc2)cc1
2. O=c1cc(NCCCCNCc2cccc(Cl)c2)[nH]c2ccccc12

Solution:
1: 4.807%; 2: -48.31%

For each listed entry, give its % Inhibition.
1. O=C(/C=C/c1ccc(Cl)c(Cl)c1)NCCCCCN1CCC(NC(=O)Nc2ccc(C(F)(F)F)cc2)C1 (stereo not shown)
2. CCc1cc(-c2onc(C)c2-c2cc3ccccc3o2)c(O)cc1OC
3. O=C(/C=C/c1ccc(Cl)c(Cl)c1)NCCCCCN1CCC(NC(=O)Nc2ccc(C(F)(F)F)cc2)CC1
4. Nc1nc2c(ncn2COC2COP(=O)(O)OC2)c(=O)[nH]1 (stereo not shown)
5. CCOc1ccc(C(C)NC(=O)c2cc(Cl)ccc2OC)cc1OCC (stereo not shown)
6. NC1CCCN(Cc2cccc(-c3ccc(-c4nc5ccccc5[nH]4)cc3)c2)C1 (stereo not shown)
7. O=C(/C=C/c1ccc(Cl)c(Cl)c1)NCCCCCN1CCCC(CNC(=O)Nc2ccc(Oc3ccccc3)cc2)C1 (stereo not shown)

Solution:
["-24.61%", "5.13%", "-19.76%", "10.06%", "67.36%", "22.08%", "54.61%"]

Provide the reported % Inhibition of each entry below, same order.
1. O=C(/C=C/c1ccc(Cl)c(Cl)c1)NCCCCCN1CCC(NC(=O)Nc2ccc(Cl)c(C(F)(F)F)c2)CC1
2. N=C(N)c1ccc(Oc2ccc(C(=N)N)cc2)cc1
3. OC1CCCN(Cc2cccc(-c3ccc(-c4nc5ccccc5[nH]4)cc3)c2)C1 (stereo not shown)
4. O=C(/C=C/c1ccc(Cl)c(Cl)c1)NCCCCCN1CCN(C(=O)Nc2ccc(C(F)(F)F)cc2)CC1
5. COc1ccc(Oc2ccc(Nc3ccnc4ccc(C(F)(F)F)cc34)cc2)cc1OC
6. CC1(C)NC(N)=NC(=N)N1OCc1ccc(-c2ccccc2)cc1

Solution:
["1.176%", "24.59%", "-22.44%", "-55.55%", "-11.17%", "-7.815%"]
